Experiment: BSK_4H_Eotaxin3: BioMAP Diversity Plus: 4H Assay for Eotaxin 3 Biomarker Activity (AID 2283000);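 on outcome: CCL26 protein level quantified by ELISA in parallel with SRB cytotoxicity check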
Conditions: primary human endothelial cells (HUVEC); actives raise or lower the signal
Activity calls are given as the source filed them. How the source made its calls: active means hit-call score of the fitted dose curve at least 0.9, where 1 is the maximum; inactive means score below 0.9.
Hi there, use one of these labels in your reply, thanks! TRUE for active, FALSE for inactive

I'd appreciate the recorded outcome for C=CC(=O)NC(C)(C)C from this test.
FALSE

I'd appreciate the recorded outcome for COc1ccc(C(=O)c2ccccc2)c(O)c1 from this test.
TRUE

I'd appreciate the recorded outcome for Cc1ccc([N+](=O)[O-])cc1N from this test.
FALSE

I'd appreciate the recorded outcome for CC=C(C)C=CC=C(C)C from this test.
TRUE

I'd appreciate the recorded outcome for Nc1nc(N)nc(-c2ccccc2)n1 from this test.
FALSE

I'd appreciate the recorded outcome for CCCCCCC=O from this test.
FALSE

====

Read-out: CD69, CD69 (gene 969)
Assay: BSK_SAg_CD69: BioMAP Diversity Plus: SAg Assay for CD69 Biomarker Activity (AID 2283089);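 on AC50: cell surface CD69 protein quantified by ELISA with fluorescence detection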
Details: primary human HUVEC with PBMC; actives raise or lower the signal
Calls of active or inactive are those of the source. How the source made its calls: active means hit-call score of the fitted dose curve at least 0.9, where 1 is the maximum; inactive means score below 0.9.
Observable: AC50

Example entries begin here.
Compound | AC50
COc1ccc(C(=O)c2ccccc2)c(O)c1 | inactive
CCOC(=O)C1=NN(c2ccc(Cl)cc2Cl)C(C)(C(=O)OCC)C1 (stereo unspecified) | inactive
CC(C)CCCCCOC(=O)CS | inactive
O=C1CCCCCCCCCCCN1 | inactive
CCCCCCCO | inactive

Looking up Oc1c(Cl)cc(Cl)c(Cl)c1Cl , I found its AC50 recorded as 27.8 µM (active)

====

Test: ATG_RORE_CIS: Attagene CIS-FACTORIAL HepG2 Assay for human RAR-related Orphan Receptor Element (RORE) (AID 2282959)
Details: HepG2 Attagene cis-factorial RORE reporter, mRNA; actives raise or lower the signal
The source made the active and inactive calls. How the source made its calls: active means hit-call score of the fitted dose curve at least 0.9, where 1 is the maximum; inactive means score below 0.9.
Hi there, use one of these labels in your reply, thanks! True for active, False for inactive

I'd appreciate the recorded outcome for Cc1c(Cl)cccc1Cl from this test.
False

I'd appreciate the recorded outcome for CC/C=C\CCOC(=O)c1ccccc1O from this test.
False

I'd appreciate the recorded outcome for CC(CC=O)CC(C)(C)C (stereo not given) from this test.
False

I'd appreciate the recorded outcome for Nc1nc(N)nc(-c2ccccc2)n1 from this test.
False

I'd appreciate the recorded outcome for CCC[Si](OC)(OC)OC from this test.
False

I'd appreciate the recorded outcome for C=CC(=O)NC(C)(C)C from this test.
False

I'd appreciate the recorded outcome for CO[Si](CCCS)(OC)OC from this test.
False

I'd appreciate the recorded outcome for CC1=CP(=O)(c2ccccc2)CC1 (stereo not given) from this test.
False

I'd appreciate the recorded outcome for c1ccc2sc(SSN3CCOCC3)nc2c1 from this test.
False

I'd appreciate the recorded outcome for Nc1cccc(N)n1 from this test.
False

I'd appreciate the recorded outcome for COC(=O)CC(C)CCC=C(C)C (stereo not given) from this test.
False

I'd appreciate the recorded outcome for Cc1c(O)cccc1O from this test.
False

I'd appreciate the recorded outcome for CC(=O)c1ccccc1O from this test.
False

I'd appreciate the recorded outcome for O=C(O)c1cc(O)c2ccccc2c1O from this test.
False

I'd appreciate the recorded outcome for O=C1c2ccccc2C(=O)c2cc(S(=O)(=O)O)ccc21 from this test.
False

I'd appreciate the recorded outcome for CC=C(C)C=CC=C(C)C from this test.
False

I'd appreciate the recorded outcome for Clc1cccnc1 from this test.
False

I'd appreciate the recorded outcome for CC1=CCC2CC1C2(C)C (stereo not given) from this test.
False

I'd appreciate the recorded outcome for CCCCCCO from this test.
False

I'd appreciate the recorded outcome for OCCCc1ccccc1 from this test.
False

I'd appreciate the recorded outcome for Cc1ccc([N+](=O)[O-])cc1N from this test.
False

I'd appreciate the recorded outcome for C=CCCCCCCCCC=O from this test.
False

I'd appreciate the recorded outcome for Oc1ccc(-c2ccccc2)c(Cl)c1 from this test.
True

I'd appreciate the recorded outcome for CCCCNC(=S)NCCCC from this test.
False

I'd appreciate the recorded outcome for C=C[C@@]1(C)CC(=O)[C@]2(O)[C@@]3(C)[C@@H](O)CCC(C)(C)[C@@H]3[C@H](O)[C@H](OC(C)=O)[C@@]2(C)O1 from this test.
False

Every entry's value here was drawn from PubChem BioAssay (EPA / NIEHS).
